Value source: ChEMBL document CHEMBL3091368

Test: Kinetic solubility of the compound in second fluid of disintegration test of Japanese pharmacopoeia containing bile acid at pH 6.8 by HPLC analysis
Assay type: physicochemical
Settings: read-out: Kinetic_solubility
MEASURE: solubility kinetic (µg/mL)

[A] O=C(Nc1ccc(Oc2ccc3nc(NC(=O)C4CC4)cn3c2)c(F)c1)c1cccn(-c2ccccc2)c1=O
[B] Cc1ccc(C(=O)Nc2ccc(Oc3ccc4nc(NC(=O)C5CC5)cn4c3)c(F)c2)c(=O)n1-c1ccccc1
[C] O=C(Nc1ccc(Oc2ccc3nc(NC(=O)C4CC4)cn3n2)c(F)c1)c1cccn(-c2ccccc2)c1=O
Input: Order the 3 compounds from highest to lowest solubility kinetic. Field: ranking. Enter the labels in the order requested.
Output: B, A, C

====

Assay: Clearance in mouse liver microsomes at 1 umol/L by HPLC analysis
Assay type: ADME, Microsome
Conditions: read-out: CLH
MEASURE: microsomal CLint at 1 µM (µL/min/mg)

Examples with their reported microsomal CLint at 1 µM follow.
ENTRY SMILES | MEASURE | DISPLAY UNIT | QUANTITATIVE READOUT
Cc1ccc(C(=O)Nc2ccc(Oc3ccc4nc(NC(=O)C5CC5)cn4n3)c(F)c2)c(=O)n1-c1ccccc1 | microsomal CLint at 1 µM | µL/min/mg | 8
O=C(Nc1ccc(Oc2ccc3nc(NC(=O)C4CC4)cn3n2)c(F)c1)c1cccn(-c2ccccc2)c1=O | microsomal CLint at 1 µM | µL/min/mg | 11

[A] O=C(Nc1ccc(Oc2ccc3nc(NC(=O)C4CC4)cn3c2)c(F)c1)c1cccn(-c2ccccc2)c1=O
[B] Cc1ccc(C(=O)Nc2ccc(Oc3ccc4nc(NC(=O)C5CC5)cn4c3)c(F)c2)c(=O)n1-c1ccccc1.Cl
Input: # return whichever of A and B has the smaller microsomal CLint at 1 µM State the label of the item chosen.
Output: B
(B: 10 µL/min/mg, A: 15 µL/min/mg)
